The reported measurements were obtained from patent US7671084B2.

# target: human ERα (Homo sapiens)
# Construct: made in house; host or cells: E. coli (crude lysate)
# Sequence (P03372 311-547 limits assumed): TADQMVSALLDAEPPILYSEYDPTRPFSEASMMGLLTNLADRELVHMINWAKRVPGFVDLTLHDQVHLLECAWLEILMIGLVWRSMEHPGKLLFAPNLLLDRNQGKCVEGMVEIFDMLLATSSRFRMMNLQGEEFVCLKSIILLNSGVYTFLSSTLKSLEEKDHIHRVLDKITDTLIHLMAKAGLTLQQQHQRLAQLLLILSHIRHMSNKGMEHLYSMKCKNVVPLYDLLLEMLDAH
# test: Competition with [3H]-17β-estradiol for binding to ERα
# study conditions: ligand binding domain of human ERα in E. coli crude lysate, 2 nM [3H]-17β-estradiol, 5-15 hours at room temperature; read-out: ERα IC50 (cell prints uM)
# Protocol: Representative examples of the invention were evaluated for their ability to compete with 17β-estradiol for both ERα and ERβ. This test procedure provides the methodology for one to determine whether a particular compound binds to the estrogen receptor (and is therefore “estrogenic”) and whether there is selectivity for ERα or ERβ. […] After between 5 and 15 hours at room temperature, the plates were washed with DPBS/1 mM EDTA and bound radioactivity determined by liquid scintillation counting. […]

| molecule | IC50 |
| --- | --- |
| Oc1ccc2c(c1)COc1c-2cc2ccc(O)cc2c1-c1ccncc1 [Example 37] | > 5 µM |

* * *

Listed compounds paired with reported melting point

| compound | melting point |
| --- | --- |
| Oc1ccc2c(c1)COc1c-2cc2ccc(O)cc2c1-c1cccnc1 | > 250 °C |
| Oc1ccc2c(c1)COc1c-2cc2ccc(O)cc2c1-c1cccc(C(F)(F)F)c1 | 228 to 231 °C |
| Oc1ccc2c(c1)COc1cc3cc(O)ccc3cc1-2 [Example 4, 5H-Dibenzo[c,g]chromene-3,9-diol] | 231 to 233 °C |
| Oc1ccc2c(c1)COc1c-2cc2ccc(O)cc2c1-c1ccc(Cl)cc1 | 239 to 242 °C |
| Cc1cccc(-c2c3c(cc4ccc(O)cc24)-c2ccc(O)cc2CO3)c1 | 219 to 222 °C |
| Oc1ccc2c(c1)COc1c-2cc2ccc(O)cc2c1-c1ccc(OC(F)(F)F)cc1 | 245 to 248 °C |
| Oc1ccc2c(c1)COc1c-2cc2ccc(O)cc2c1-c1ccc(F)c(F)c1 | 235 to 237 °C |
| Oc1ccc2c(c1)COc1c-2cc2ccc(O)cc2c1-c1ccoc1 | 216 to 218 °C |
| Cc1ccccc1-c1c2c(cc3ccc(O)cc13)-c1ccc(O)cc1CO2 | 193 to 196 °C |
| Oc1ccc2c(c1)COc1c-2cc2ccc(O)cc2c1-c1ccccc1Cl | 220 to 222 °C |
| N#Cc1ccc(-c2c3c(cc4ccc(O)cc24)-c2ccc(O)cc2CO3)cc1 | > 250 °C |
| COc1cncc(-c2c3c(cc4ccc(O)cc24)-c2ccc(O)cc2CO3)c1 | > 250 °C |
| Oc1ccc2c(c1)COc1ccc3ccc(O)cc3c1-2 [Example 5, 5H-Dibenzo[c,f]chromene-3,11-diol] | 199 to 201 °C |
| CCCCc1c2c(cc3ccc(O)cc13)-c1ccc(O)cc1CO2 [Example 49, 7-Butyl-5H-dibenzo[c,g]chromene-3,9-diol] | 187 to 189 °C |
| Oc1ccc2c(c1)COc1c-2cc2ccc(O)cc2c1-c1cccc(Cl)c1 | 243 to 246 °C |
| N#Cc1c2c(cc3ccc(O)cc13)-c1ccc(O)cc1CO2 | > 280 °C |
| Oc1ccc2c(c1)COc1c-2cc2ccc(O)cc2c1-c1ccco1 | 158 to 163 °C |
| Oc1ccc2c(c1)COc1c-2cc2ccc(O)cc2c1-c1cc(F)cc(F)c1 | 238 to 240 °C |

* * *

# target: human ERβ (Homo sapiens)
# Construct: made in house; host or cells: E. coli (crude lysate)
# Sequence (Q92731 264-498 limits assumed): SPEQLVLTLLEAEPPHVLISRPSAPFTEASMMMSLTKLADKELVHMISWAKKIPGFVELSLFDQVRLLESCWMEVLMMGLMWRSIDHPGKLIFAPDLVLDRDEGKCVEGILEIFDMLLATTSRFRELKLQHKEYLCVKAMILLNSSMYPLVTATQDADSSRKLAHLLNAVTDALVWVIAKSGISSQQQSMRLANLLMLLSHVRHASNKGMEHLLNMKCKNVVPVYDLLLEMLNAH
# test: Competition with [3H]-17β-estradiol for binding to ERβ
# study conditions: ligand binding domain of human ERβ in E. coli crude lysate, 2 nM [3H]-17β-estradiol, 5-15 hours at room temperature
Consider the following partition of reported IC50 into named classes: lowest: < 4 nM; middle: ≥ 4 nM and < 10 nM; highest: ≥ 10 nM

| smi | qualitative label |
| --- | --- |
| Oc1ccc2c(c1)COc1c-2cc2ccc(O)cc2c1-c1ccco1 | lowest |
| Cc1cccc(-c2c3c(cc4ccc(O)cc24)-c2ccc(O)cc2CO3)c1 | middle |
| Oc1ccc2c(c1)COc1c-2cc2ccc(O)cc2c1-c1ccncc1 | lowest |
| Oc1ccc2c(c1)COc1c-2cc2ccc(O)cc2c1-c1cccc(OC(F)(F)F)c1 | highest |
| Oc1ccc2c(c1)COc1c-2cc2ccc(O)cc2c1-c1ccc(F)cc1 | middle |
| Cc1ccc(-c2c3c(cc4ccc(O)cc24)-c2ccc(O)cc2CO3)cc1F | highest |
